B1: LINE1-full (parent)
chain: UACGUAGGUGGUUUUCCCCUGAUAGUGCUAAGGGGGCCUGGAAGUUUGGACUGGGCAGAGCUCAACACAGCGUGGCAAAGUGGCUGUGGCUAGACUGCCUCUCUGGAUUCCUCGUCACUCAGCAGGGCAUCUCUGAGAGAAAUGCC

variants of: B1; experiment: self-cleavage, relative activity (ratio to wild type); higher = more cleavage; in vitro, sequencing; the parent is a self-cleaving ribozyme
Attribute: self-cleavage
assay endpoint: self-cleavage

INSERT INTO assay_data (variant_key, reported_result) VALUES
  ('A31G C113U', 1.03),
  ('C68U U87C', 0.02),
  ('C63U U102C', 0.28),
  ('U23C A92G', 0.09),
  ('U104C U109A', 0.65),
  ('U115A U132A', 1.03);
